Could you please report measured gamma-GTP for the items listed next?
Species on record: Rattus norvegicus
Assay: Open TG-GATES - Regimen: Single
Assay type: toxicity, organism-based, Sprague-Dawley
Design: regimen Single, gender Male, age 6 weeks
Conditions: in vivo, po, 100 mg/kg, 3 h, tissue Plasma, route gavage, dose level Low
Please give the number followed by its unit.

Look over these answered cases.
| Cpd smiles | gamma-GTP |
| --- | --- |
| O=C(OC[C@H]1O[C@@H](OC(=O)c2cc(O)c(O)c(OC(=O)c3cc(O)c(O)c(O)c3)c2)[C@H](OC(=O)c2cc(O)c(O)c(OC(=O)c3cc(O)c(O)c(O)c3)c2)[C@@H](OC(=O)c2cc(O)c(O)c(OC(=O)c3cc(O)c(O)c(O)c3)c2)[C@@H]1OC(=O)c1cc(O)c(O)c(OC(=O)c2cc(O)c(O)c(O)c2)c1)c1cc(O)c(O)c(OC(=O)c2cc(O)c(O)c(O)c2)c1 | 2.2 IU/L |
| CNC(=C[N+](=O)[O-])NCCSCc1ccc(CN(C)C)o1 | 1.2 IU/L |
| Cc1nnc2n1-c1ccc(Cl)cc1C(c1ccccc1Cl)=NC2 | 1.4 IU/L |
| CN/C(=N/CCSCc1nc[nH]c1C)NC#N | 0.6 IU/L |

# context switch: different molecule, same gamma-GTP
Kindly indicate its recorded gamma-GTP. Item: `COC(=O)C1=C(C)NC(C)=C(C(=O)OC)C1c1ccccc1[N+](=O)[O-]`
1.2 IU/L
